- tested-system: Mature CpdB (Escherichia coli, UniProt P08331)
- Sequence (P08331 20-647): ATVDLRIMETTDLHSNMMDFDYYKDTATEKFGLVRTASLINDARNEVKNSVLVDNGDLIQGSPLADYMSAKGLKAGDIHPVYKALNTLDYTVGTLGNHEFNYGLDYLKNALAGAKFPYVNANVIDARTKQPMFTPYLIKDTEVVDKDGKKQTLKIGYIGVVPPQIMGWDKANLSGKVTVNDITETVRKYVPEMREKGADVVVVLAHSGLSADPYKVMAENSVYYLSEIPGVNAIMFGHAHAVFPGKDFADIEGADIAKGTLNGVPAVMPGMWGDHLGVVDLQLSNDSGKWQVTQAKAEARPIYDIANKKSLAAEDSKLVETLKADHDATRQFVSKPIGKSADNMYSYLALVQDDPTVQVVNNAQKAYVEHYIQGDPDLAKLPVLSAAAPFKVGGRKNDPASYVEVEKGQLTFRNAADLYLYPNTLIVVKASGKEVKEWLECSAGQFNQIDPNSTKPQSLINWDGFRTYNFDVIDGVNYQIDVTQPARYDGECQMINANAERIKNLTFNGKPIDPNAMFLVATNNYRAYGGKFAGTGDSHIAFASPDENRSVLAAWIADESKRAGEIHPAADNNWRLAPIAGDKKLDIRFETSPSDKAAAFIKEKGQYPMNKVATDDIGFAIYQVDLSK
- assay-text: biochemical

- smiles-text: "Nc1ncnc2c1ncn2[C@@H]1O[C@H](CO)[C@@H](O)[C@H]1O"
  Ki: "41 µM"

====

k cat /K M for assorted compounds
- tested-system: CpdB_Ndom (N-terminal domain of CpdB) (Escherichia coli, UniProt P08331, D305N/I97V/M87I)
- Construct: GST (N, cleaved yes); made in house; host or cells: E. coli BL21
- Sequence (P08331 20-354 M87I/I97V/D305N): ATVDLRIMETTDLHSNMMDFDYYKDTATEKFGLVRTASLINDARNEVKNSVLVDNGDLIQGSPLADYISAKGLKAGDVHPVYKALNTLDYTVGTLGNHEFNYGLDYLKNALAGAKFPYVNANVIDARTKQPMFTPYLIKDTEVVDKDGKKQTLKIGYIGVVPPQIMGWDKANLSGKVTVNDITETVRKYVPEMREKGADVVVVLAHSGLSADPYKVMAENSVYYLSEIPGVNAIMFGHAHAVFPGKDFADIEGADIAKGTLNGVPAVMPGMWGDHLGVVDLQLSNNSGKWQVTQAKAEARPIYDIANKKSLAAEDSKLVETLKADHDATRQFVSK
- Format: biochemical
- measurement-setup: CpdB_Ndom; substance is the substrate; mean ± SD of three experiments
outcome-measure: k cat /K M

- compound: "O=c1ccn([C@@H]2O[C@H](CO)[C@H]3OP(=O)(O)O[C@H]32)c(=O)[nH]1"
  result: "250,000 ± 50,000 M^−1 s^−1"
- compound: "Nc1nc2c(ncn2[C@@H]2O[C@H](CO)[C@H]3OP(=O)(O)O[C@H]32)c(=O)[nH]1"
  result: "100,000 ± 13,000 M^−1 s^−1"
- compound: "O=[N+]([O-])c1ccc(OP(=O)(O)Oc2ccc([N+](=O)[O-])cc2)cc1 [bis-4-NPP, bis-4-nitrophenylphosphate]"
  result: "130,000 ± 7000 M^−1 s^−1"
- compound: "Nc1ccn([C@@H]2O[C@H](CO)[C@H]3OP(=O)(O)O[C@H]32)c(=O)n1"
  result: "200,000 ± 80,000 M^−1 s^−1"
- compound: "Nc1ncnc2c1ncn2[C@@H]1O[C@H](CO)[C@H]2OP(=O)(O)O[C@H]21"
  result: "190,000 ± 13,000 M^−1 s^−1"
